Measured values drawn from PubChem BioAssay (NCATS) for this set.

// Z-AUC lookup, one value per entry
Assay: qHTS drug screen for cell cycle checkpoint inhibitors in PARPi-resistant BRCA-mutant ovarian cancer cell lines. (AID 1963452)
Conditions: PEO1/OlaR viability, CellTiter-Glo luminescence, 96 h; measured here: PEO1 parental Z-AUC; stronger effect = lower value
From the text: Women's Malignancies Branch, Center for Cancer Research (CCR), National Cancer Institute (NCI), National Institutes of Health (NIH), Bethesda, MD Poly (ADP-ribose) polymerase inhibitors (PARPis) have changed the treatment paradigm in breast cancer gene (BRCA) - mutant high-grade serous ovarian carcinoma (HGSC). […] 6; Detection; Luminescence, PHERAstar (BMG Labtech) plate reader. […] 6. Luminescence readings were taken using PHERAstar (BMG Labtech). […]
parameter.measured: Z-AUC

>>> readout_number("Cn1cc(-c2ccc3ncc(Cc4ccc5ncccc5c4)n3n2)cn1")
0.877
>>> readout_number("CCC(C(=O)O)C1CCC(C)C(C(C)C(O)C(C)C(=O)C(CC)C2OC3(C=CC(O)[C@@]4(CC[C@](C)(C5CC[C@@](O)(CC)C(C)O5)O4)O3)C(C)CC2C)O1 (stereo partly drawn)")
-1.77
>>> readout_number("CC(O)(C#Cc1ccc2c(c1)N(c1nc(N)ncc1Cl)CC2)c1nccs1 (stereo not drawn)")
-0.463
>>> readout_number("CC(C)n1cnc2c(NCCc3ccc(O)cc3)nc(-c3csc4ccccc34)nc21")
0.415
>>> readout_number("NC(=O)N1CCC(CC(=O)N2CCC([C@H]3c4ncc(Br)cc4CCc4cc(Cl)cc(Br)c43)CC2)CC1")
-0.883
>>> readout_number("N#Cc1c(NC(=O)c2cccc3ccccc23)sc2c1CCCC2")
-0.695
>>> readout_number("CC(=O)O[C@H]1C[C@@H]2CC[C@H]3[C@H]4C[C@H]([N+]5(C)CCCCC5)[C@@H](OC(C)=O)[C@@]4(C)CC[C@@H]3[C@@]2(C)C[C@H]1[N+]1(C)CCCCC1")
1.06
>>> readout_number("Oc1ccc([C@@H]2Oc3ccc(O)cc3[C@@H]3CCC[C@@H]32)cc1")
-0.25

----------
test system: WaGa; assay: qHTS assay to identify novel small-molecules to repurpose for Merkel cell carcinoma treatment (AID 1296009); conditions: MCC and control cell lines, CellTiter-Glo viability, 72 h; series mostly up to 46 µM; note: nearly all actives have a fitted effect of over 60% in size
Records with an inconclusive call do not appear. The source made the active and inactive calls. Calls follow the shape of the dose curve; as a rule, active = well fitted inhibition curve with a large enough effect; inconclusive = small, poorly fitted or top-dose-only effect; inactive = flat fitted curve, though single readings scatter.
Labels: True (active), False (inactive)

>>> category("C#C[C@]1(O)CC[C@@H]2[C@@H]3CCc4cc(O)ccc4[C@H]3CC[C@@]21C")
"False"
>>> category("C[C@]12CCC(=O)C=C1[C@@H]1CC1[C@H]1[C@H]3[C@@H]4C[C@H]4[C@@]4(CCC(=O)O4)[C@@]3(C)CC[C@H]12 (stereo partly drawn)")
"False"
>>> category("O=C(O)C[C@H](O)C[C@H](O)C=Cc1c(C2CC2)nc2ccccc2c1-c1ccc(F)cc1")
"True"
>>> category("CC(C)(C)c1nc2c3cc[nH]c(=O)c3c3cc(F)ccc3c2[nH]1")
"False"
>>> category("NC(=O)c1ncn([C@@H]2O[C@H](CO)[C@@H](O)[C@@H]2O)c1O")
"False"
>>> category("COC[C@H](NC(=O)c1cnc(C)s1)C(=O)N[C@@H](COC)C(=O)N[C@@H](Cc1ccccc1)C(=O)[C@@]1(C)CO1")
"True"
>>> category("NS(=O)(=O)OC[C@@H]1C[C@@H](n2ccc3c(N[C@H]4CCc5ccccc54)ncnc32)C[C@H]1O")
"True"
>>> category("CCCCC(=O)O[C@]1(C(=O)CO)[C@@H](C)C[C@H]2[C@@H]3CCC4=CC(=O)C=C[C@]4(C)[C@@]3(F)[C@@H](O)C[C@@]21C")
"False"

----------
assay: Quantitative High-Throughput drug screen in 47 multiple myeloma cell lines against the NCATS MIPE library collection: KMS11_JCRBsus cell viability assay (AID 1919873); details: KMS11 myeloma viability, CellTiter-Glo ATP luminescence, 48 h; series mostly up to 45.8 µM; note: nearly all actives have a fitted effect of over 50% in size
Records with an inconclusive call do not appear. The source made the active and inactive calls. The call rests on the fitted dose curve; in most records, active means well fitted cell-killing curve with a large enough effect; inconclusive means small, poorly fitted or top-dose-only effect, or effect the other way; inactive means no such curve, though single readings can be large or run the other way.
Classes used: 1 = active, -1 = inactive

>>> category("COc1cc(C)c(Sc2cnc(NC(=O)c3ccc(CNC(C)C(C)(C)C)cc3)s2)cc1C(=O)N1CCN(C(C)=O)CC1 (centres undefined)")
1
>>> category("C=C1C(=O)O[C@H]2[C@@H]1CCC(C)=CCC[C@@]1(C)O[C@@H]21")
1
>>> category("CC(O)(C#Cc1ccc2c(c1)N(c1nc(N)ncc1Cl)CC2)c1nccs1 (centres undefined)")
1
>>> category("CC(C)(C)c1nc2c3cc[nH]c(=O)c3c3cc(F)ccc3c2[nH]1")
1
>>> category("O=C1c2c(O)cccc2[C@@H]([C@@H]2O[C@H](CO)[C@@H](O)[C@H](O)[C@H]2O)c2cc(CO)cc(O)c21")
-1
>>> category("CC(C=CC(=O)NO)=C[C@@H](C)C(=O)c1ccc(N(C)C)cc1")
1
>>> category("COc1cc2c(cc1O)CCC1C2CC[C@@]2(C)C1CC[C@@H]2O (some centres undefined)")
1
>>> category("CC(=O)[C@]1(O)Cc2c(O)c3c(c(O)c2[C@@H](O[C@H]2C[C@H](N)[C@@H](O)[C@H](C)O2)C1)C(=O)c1ccccc1C3=O")
1
>>> category("CC(C)c1cc(C(C)C)c(CC(=O)NS(=O)(=O)Oc2c(C(C)C)cccc2C(C)C)c(C(C)C)c1")
1

----------
assay: qHTS Screen of the MIPE 4.0 Collection Against Ewings Sarcoma (TC71) (AID 1259253); conditions: TC71 Ewing sarcoma viability, CellTiter-Glo, 48 h; series mostly up to 45.8 µM; note: nearly all actives have a fitted effect of over 40% in size
Results filed as inconclusive are left out. Activity calls are given as the source filed them. The call rests on the fitted dose curve; in most records, active means well fitted inhibition curve with a large enough effect; inconclusive means small, poorly fitted or top-dose-only effect; inactive means no such curve, though single readings can be large or run the other way.
Outcomes: y (active), n (inactive)

>>> category("CC(=O)O[C@H]1C[C@@H]2CC[C@H]3[C@H]4C[C@H]([N+]5(C)CCCCC5)[C@@H](OC(C)=O)[C@@]4(C)CC[C@@H]3[C@@]2(C)C[C@H]1[N+]1(C)CCCCC1")
"y"
>>> category("NC(=O)c1ncn([C@@H]2O[C@H](CO)[C@@H](O)[C@@H]2O)c1N")
"n"
>>> category("CC(C)(C)[N+]([O-])=Cc1ccc(S(=O)(=O)O)cc1S(=O)(=O)O")
"n"
>>> category("C[C@H]1COc2c(N3CCN(C)CC3)c(F)cc3c(=O)c(C(=O)O)cn1c23")
"n"
>>> category("Cc1cc(Nc2ncc3c(n2)N(C)C(=O)N(c2cc(NC(=O)c4cccc(C(F)(F)F)c4)ccc2C)C3)n(C)n1")
"y"
>>> category("Cn1cnc(=N)c2[nH]cnc21")
"y"
>>> category("O=C1NC(=O)[C@@H](c2cn3c4c(cccc24)CCC3)[C@H]1c1c[nH]c2ccccc12")
"y"
>>> category("Cc1ncc(-c2ccnc(Nc3ccc(S(C)(=O)=O)cc3)n2)n1C(C)C")
"y"
>>> category("COc1ccc(Nc2cc(-c3cnc(N)nc3)nc(N3CCOCC3)n2)cn1")
"y"
>>> category("CN(CC(=O)N(Cc1ccc(C2CCCCC2)cc1)c1ccc(C(=O)O)c(O)c1)S(=O)(=O)c1c(F)c(F)c(F)c(F)c1F")
"y"
>>> category("CCCCCCCCCCCC(CC1OC(=O)C1CCCCCC)OC(=O)C(CC(C)C)NC=O (configuration not stated)")
"n"
>>> category("CC(C=CC1=C(C)CCCC1(C)C)=CC=CC(C)=CC(=O)Nc1ccc(O)cc1")
"y"
>>> category("c1cncc(CN2CCC(n3ncc4c(N5CCOCC5)nc(-c5ccc6[nH]ccc6c5)nc43)CC2)c1")
"y"
>>> category("O=C(Nc1cccc(Nc2ncc(Br)c(NCCc3cnc[nH]3)n2)c1)N1CCCC1")
"y"
>>> category("O=[N+]([O-])c1cn2c(n1)OC[C@@H](OCc1ccc(OC(F)(F)F)cc1)C2")
"y"
>>> category("Cc1ccc([N+](=O)[O-])cc1S(=O)(=O)N(C)N=Cc1cnc2ccc(Br)cn12")
"y"
>>> category("OCc1ccccc1O[C@@H]1O[C@H](CO)[C@H](O)[C@H](O)[C@H]1O")
"n"
>>> category("CCS(=O)(=O)Nc1ccc2[nH]c(O)c(C(=Nc3ccc(CN4CCCCC4)cc3)c3ccccc3)c2c1")
"y"
>>> category("N#CC(=C(N)Sc1ccc(N)cc1)c1ccccc1C(F)(F)F")
"y"
>>> category("COc1ccc(C=Cc2cc(OC)c(OC)c(OC)c2)cc1NC(=O)[C@H](N)CO")
"y"
>>> category("CC(O)(C#Cc1ccc2c(c1)N(c1nc(N)ncc1Cl)CC2)c1nccs1 (configuration not stated)")
"y"
>>> category("C#CCC(Cc1cnc2nc(N)nc(N)c2n1)c1ccc(C(=O)N[C@@H](CCC(=O)O)C(=O)O)cc1 (some centres not stated)")
"y"
>>> category("O=C(NNC(=O)c1ccc(CNS(=O)(=O)c2ccc(F)c(Cl)c2)cc1)c1ccccc1")
"n"
>>> category("O=C(O)C=Cc1ccc(Cn2ccnc2)cc1")
"n"
>>> category("C=Cc1c(C)c2cc3nc(cc4[nH]c(cc5nc(cc1[nH]2)C(C)=C5CCC(=O)O)c(CCC(=O)OC)c4C)[C@@]1(C)C3=CC=C(C(=O)OC)[C@H]1C(=O)OC")
"y"
>>> category("O=C(O)C[C@H](O)C[C@H](O)C=Cc1c(C2CC2)nc2ccccc2c1-c1ccc(F)cc1")
"y"
>>> category("C=CC(=O)Nc1ccc2ncnc(Nc3ccc(OCc4cccc(F)c4)c(Cl)c3)c2c1")
"y"
>>> category("O=C(CN1C(=O)C2(CCCC2)NC[C@H]1c1cc(F)cc(F)c1)Nc1ccc2c(c1)C[C@@]1(C2)C(=O)Nc2ncccc21")
"n"
>>> category("N#Cc1c(NC(=O)c2cccc3ccccc23)sc2c1CCCC2")
"y"
>>> category("COc1ccc(C(C)=O)c(O)c1")
"n"
>>> category("O=C(C=Cc1ccc(CN(CCO)CCc2c[nH]c3ccccc23)cc1)NO")
"y"
>>> category("CCN(CC)CCCCNc1ncc2c(n1)N(C)C(=O)N(c1c(Cl)c(OC)cc(OC)c1Cl)C2")
"y"
>>> category("OCCN1C[C@H](O)[C@@H](O)[C@H](O)[C@@H]1CO")
"n"
>>> category("Nc1ccc(C(=O)Nc2cccc(-c3nc(N4CCOCC4)c4oc5ncccc5c4n3)c2)cn1")
"y"
>>> category("C#C[C@]1(O)CC[C@@H]2[C@@H]3CCc4cc(O)ccc4[C@H]3CC[C@@]21C")
"y"
>>> category("CC(=CC(=O)Nc1ccccc1C(=O)O)c1ccc2ccccc2c1")
"y"
>>> category("CC(=O)O[C@@]12CO[C@H]1C[C@H](O)[C@@]1(C)C(=O)[C@H](O)C3=C(C)[C@@H](OC(=O)C(O)[C@@H](NC(=O)OC(C)(C)C)c4ccccc4)C[C@@](O)([C@@H](OC(=O)c4ccccc4)[C@@H]21)C3(C)C (some centres not stated)")
"n"
